Every entry's value here was drawn from ChEMBL document CHEMBL1961873.

# subject-of-test: Serine/threonine-protein kinase PAK 1 (Homo sapiens)
# condition-set: at 1 µM
value-type: inhibition (%)
Report the figure in % without appending any unit label.

Q) What does the data say about its inhibition? Entry: CCc1ccc(Oc2nccc(-c3c(-c4ccc(F)cc4)ncn3C3CCNCC3)n2)cc1
A) 10.2

Q) Record request: inhibition value, item CCc1nccc2c1nc(-c1nonc1N)n2CC
A) 3.71

Q) Requested read-out: inhibition. Entry: Cc1nnc(-c2ccc(C)c(-c3ccc(C(=O)NCc4ccc(Cl)cc4)cc3)c2)o1
A) 6.11

Q) // returns reported inhibition for input CN(C)CCOc1ccc(-c2cc(-c3ccc4c(c3)CCC4=NO)c(-c3ccncc3)o2)cc1
A) -1.45

* * *

I'd be grateful if you could share measured inhibition for these entries.
# subject-of-test: Serine/threonine-protein kinase MARK1 (Homo sapiens) (UniProt Q9P0L2)
# Sequence (Q9P0L2 whole entry, looked up): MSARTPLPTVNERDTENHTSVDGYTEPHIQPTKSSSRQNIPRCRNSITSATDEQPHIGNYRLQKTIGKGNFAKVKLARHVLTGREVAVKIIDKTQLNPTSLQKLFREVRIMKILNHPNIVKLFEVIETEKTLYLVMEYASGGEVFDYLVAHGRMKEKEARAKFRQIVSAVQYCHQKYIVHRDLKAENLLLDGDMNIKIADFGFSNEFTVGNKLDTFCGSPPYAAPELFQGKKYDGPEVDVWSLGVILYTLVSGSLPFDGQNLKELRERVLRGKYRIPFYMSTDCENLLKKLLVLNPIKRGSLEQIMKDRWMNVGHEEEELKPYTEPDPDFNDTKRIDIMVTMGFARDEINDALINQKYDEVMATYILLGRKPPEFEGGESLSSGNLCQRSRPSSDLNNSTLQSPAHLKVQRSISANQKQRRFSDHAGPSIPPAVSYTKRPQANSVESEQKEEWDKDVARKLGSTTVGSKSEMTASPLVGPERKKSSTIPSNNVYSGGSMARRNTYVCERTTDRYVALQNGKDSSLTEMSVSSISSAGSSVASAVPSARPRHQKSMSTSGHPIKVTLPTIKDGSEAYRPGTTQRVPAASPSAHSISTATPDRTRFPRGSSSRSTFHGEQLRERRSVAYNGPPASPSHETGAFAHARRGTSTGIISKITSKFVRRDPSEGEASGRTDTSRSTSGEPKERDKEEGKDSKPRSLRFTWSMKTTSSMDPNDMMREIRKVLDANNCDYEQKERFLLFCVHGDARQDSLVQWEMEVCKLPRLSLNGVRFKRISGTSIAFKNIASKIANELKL
# condition-set: at 1 µM

Q) Please state recorded inhibition (tested on Serine/threonine-protein kinase MARK1 (Homo sapiens) (UniProt Q9P0L2)) of NS(=O)(=O)c1ccc(N/N=C2\C(=O)Nc3ccc(-c4cnco4)cc32)cc1
A) 15.6%

Q) For the record O=C1Nc2ccc(I)cc2C1=Cc1cc(Br)c(O)c(Br)c1 , what value of inhibition is listed for Serine/threonine-protein kinase MARK1 (Homo sapiens) (UniProt Q9P0L2)?
A) 2.09%

Q) Serine/threonine-protein kinase MARK1 (Homo sapiens) (UniProt Q9P0L2) / inhibition / Cc1ccc(C(=O)NC2CCC2)cc1-c1ccc(C(=O)NCC2CC2)cc1 : value?
A) 1.46%

Q) Observed inhibition on Serine/threonine-protein kinase MARK1 (Homo sapiens) (UniProt Q9P0L2) for COc1cc(Nc2ncc3c(C)nc(-c4cccc(C(F)(F)F)c4)n3n2)cc(OC)c1OC , please.
A) 15.5%

Q) Hello, I am looking for reported inhibition with Serine/threonine-protein kinase MARK1 (Homo sapiens) (UniProt Q9P0L2) for COc1cccc(-n2cnc3c(N/N=C/c4ccncc4)ncnc32)c1 . Could you help?
A) 6.09%

Q) API: value(readout= inhibition, system= Serine/threonine-protein kinase MARK1 (Homo sapiens) (UniProt Q9P0L2), query= CNC(=O)c1cncc(/C=C/c2c(C)cccc2C)c1 )
A) 0.89%

Q) Item NC(=O)c1ccc(Oc2nccc(-c3c(-c4ccc(F)cc4)ncn3C3CCNCC3)n2)cc1 with Serine/threonine-protein kinase MARK1 (Homo sapiens) (UniProt Q9P0L2) - inhibition?
A) 4.16%

Q) Lab note: need inhibition for CCc1ccc(Oc2nccc(-c3c(-c4ccc(F)cc4)ncn3C3CCNCC3)n2)cc1 on Serine/threonine-protein kinase MARK1 (Homo sapiens) (UniProt Q9P0L2), anyone have it?
A) 7.96%

Q) Any idea what inhibition came out for COc1cccc(/C=N/Nc2ncnc3c2cnn3-c2cccc(OC)c2)c1 on Serine/threonine-protein kinase MARK1 (Homo sapiens) (UniProt Q9P0L2)?
A) 2.26%

Q) Provide the documented inhibition with Serine/threonine-protein kinase MARK1 (Homo sapiens) (UniProt Q9P0L2) as the system for C[C@@H](Oc1cc(-n2cnc3ccc(OCC4CCN(C)CC4)cc32)sc1C(N)=O)c1ccccc1Cl
A) 24.3%

Q) GET /values?readout=inhibition&system=Serine/threonine-protein kinase MARK1 (Homo sapiens) (UniProt Q9P0L2)&item= COc1ccc2ncn(-c3cc(O[C@H](C)c4ccccc4Cl)c(C(N)=O)s3)c2c1
A) 2.92%

Q) Lookup: inhibition / Serine/threonine-protein kinase MARK1 (Homo sapiens) (UniProt Q9P0L2) / COc1cc2ncn(-c3cc(OCc4ccccc4C(F)(F)F)c(C(C)=O)s3)c2cc1OC
A) 2.61%

Q) # get_value(readout= inhibition, system= Serine/threonine-protein kinase MARK1 (Homo sapiens) (UniProt Q9P0L2)) for O=C(NCC1CC1)c1ccc(-c2cccc(C(=O)NC3CC3)c2)cc1
A) 1.62%

Q) Which inhibition is reported with Serine/threonine-protein kinase MARK1 (Homo sapiens) (UniProt Q9P0L2) for this entry: CN(c1ccc(NC(=O)Nc2c(Cl)cccc2Cl)cc1)c1ccnc(Nc2cccc(CS(C)(=O)=O)c2)n1 ?
A) 10.8%

Q) Identify the measured inhibition of CCN(CC)Cc1ccc(Nc2nccc(-c3cnn4ncccc34)n2)cc1 for Serine/threonine-protein kinase MARK1 (Homo sapiens) (UniProt Q9P0L2).
A) 20.9%

Q) Could you share what inhibition was measured for NCc1ccc(-n2c(-c3nonc3N)nc3cnccc32)cc1 , tested on Serine/threonine-protein kinase MARK1 (Homo sapiens) (UniProt Q9P0L2)?
A) 23.2%

Q) Lab note: need inhibition with Serine/threonine-protein kinase MARK1 (Homo sapiens) (UniProt Q9P0L2) for entry COc1cc(C)c(N(C)C(=O)CN(C)C)cc1Nc1nc(Nc2cccc(F)c2C(N)=O)c2cc[nH]c2n1 , please look it up.
A) 1.97%

Q) Param readout= inhibition; system= Serine/threonine-protein kinase MARK1 (Homo sapiens) (UniProt Q9P0L2); entry= COc1cc2ncn(-c3cc(OCc4cccs4)c(C(N)=O)s3)c2cc1OC ; returns value.
A) 15.8%

Q) Param readout= inhibition; system= Serine/threonine-protein kinase MARK1 (Homo sapiens) (UniProt Q9P0L2); entry= c1ccc(-c2n[nH]cc2-c2ccnc(-c3ccc(OCCN4CCOCC4)cc3)c2)nc1 ; returns value.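 Note: reported values are mean percent inhibition of MARK1.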
A) 4.86%

Q) Give Serine/threonine-protein kinase MARK1 (Homo sapiens) (UniProt Q9P0L2) inhibition for CS(=O)(=O)CCNCc1cc(-c2cc3c(Nc4ccc(OCc5cccc(F)c5)c(Cl)c4)ncnc3s2)cs1
A) 3.02%

Q) Query inhibition on Serine/threonine-protein kinase MARK1 (Homo sapiens) (UniProt Q9P0L2) for NC(=O)c1cc(-c2ccncc2)cc(-c2ccccc2)c1N
A) 8.02%

Q) Field: inhibition (Serine/threonine-protein kinase MARK1 (Homo sapiens) (UniProt Q9P0L2)). Entry: COc1cc(Nc2ncc(-c3ccccc3)o2)cc(OC)c1OC
A) 15.6%
